These measurements were taken from PubChem BioAssay AID248.

# Tested on: L1210 leukemia ip in BDF1 mice, survival T/C
# experiment summary: NCI In Vivo Anticancer Drug Screen. Data for tumor model L1210 Leukemia (intraperitoneal) in B6D2F1 (BDF1) mice
# protocol conditions: endpoint: mean survival time; dose: 12.5 mg/kg/injection; schedule: Q01DX009 (ip); vehicle: saline with Tween-80; higher = longer survival
Inconclusive results and toxic doses are left out.
Quick reference for T/C among some compounds
value type: T/C

>>> observed_result("Cc1c([N+](=O)[O-])cc(C(C)(C)C)c(O)c1[N+](=O)[O-]")
"91 % of control"
>>> observed_result("CC(F)(F)C(F)(F)C(=O)CC(=O)C(F)(F)F.CC(F)(F)C(F)(F)C(=O)CC(=O)C(F)(F)F.[Cu]")
"101 % of control"
>>> observed_result("CC(=O)c1cc(I)c(O)c2ncccc12")
"91 % of control"
>>> observed_result("CN1CCN(C(=O)c2ccc(Cl)c(Cl)c2)CC1")
"117 % of control"
>>> observed_result("NC(=Nc1ccccc1)Nc1ccccc1")
"97 % of control"
>>> observed_result("C#CC(=O)C(CC)CCCC (centres undefined)")
"117 % of control"
>>> observed_result("O=C(C=C(C(F)(F)F)C(F)(F)F)c1cccc(C(F)(F)F)c1")
"102 % of control"
>>> observed_result("CC1(C)CCC(C#N)=C1N")
"93 % of control"
>>> observed_result("CCOC(=O)C(C(=O)c1ccccc1)c1cc(NS(=O)(=O)c2ccccc2)ccc1O (centres undefined)")
"90 % of control"

* * *

# Test system: L1210 leukemia ip in BDF1 mice, survival T/C
# experiment summary: NCI In Vivo Anticancer Drug Screen. Data for tumor model L1210 Leukemia (intraperitoneal) in B6D2F1 (BDF1) mice
# protocol conditions: endpoint: mean survival time; dose: 100.0 mg/kg/injection; schedule: Q04DX003 (ip); vehicle: Klucel (hydroxypropylcellulose) (HPC); higher = longer survival
# Experimental: The antitumor activity of compounds was measured in mice bearing transplantable tumors. Survival or tumor size were measured and the results are expressed as the measurement made in the treated group (T) divided by the measurement made in the vehicle treated control group (C). The tumor model used in this assay is L1210 Leukemia (intraperitoneal) in B6D2F1 (BDF1) mice
Toxic doses and inconclusive results are not listed.
Quick reference for T/C among some compounds
value type: T/C

>>> observed_result("O=C(O)CNc1cccc([N+](=O)[O-])c1")
"98 % of control"
>>> observed_result("Cc1cc(C)c(NC(=O)Nc2cccc3ccccc23)c(C)c1")
"96 % of control"
>>> observed_result("Nc1ccc(S(=O)(=O)c2ccc(N)cc2)cc1")
"96 % of control"
>>> observed_result("O=C/C(=C/c1ccccc1)c1ccccc1")
"107 % of control"
>>> observed_result("CC(=O)Nc1ccc(OCCCCOc2ccccc2)cc1")
"103 % of control"
>>> observed_result("Cc1ccc(NC(=O)OCCOc2ccc([N+](=O)[O-])cc2)c([N+](=O)[O-])c1")
"97 % of control"
>>> observed_result("CC(=O)Nc1cc(C(=O)Nc2ccc(C)cc2C)ccc1C")
"92 % of control"
>>> observed_result("NC(CSCc1ccccc1)C(=O)O (configuration not stated)")
"100 % of control"
>>> observed_result("CCCCCCC(=O)CC(C)C")
"97 % of control"
>>> observed_result("CCOC(=O)C(Cc1ccc(O)cc1)NP(=O)(OCCCl)OCCCl (configuration not stated)")
"95 % of control"
>>> observed_result("COc1ccc(OCCOC(=O)Nc2ccccc2C(F)(F)F)cc1")
"105 % of control"
>>> observed_result("Cc1ccc(C)c(NC(=O)Nc2ccccc2C)c1")
"86 % of control"
>>> observed_result("O=C(c1ccccc1)C(Br)C(Br)C(=O)c1ccccc1 (configuration not stated)")
"91 % of control"
>>> observed_result("CC(=O)Nc1ccc(NC(=O)Nc2ccc(F)c(Cl)c2)cc1")
"92 % of control"
>>> observed_result("CCCCCCCCC(O)CCCCC (configuration not stated)")
"106 % of control"
>>> observed_result("CCOC(=O)c1cc(C=O)oc1C")
"95 % of control"
>>> observed_result("C[Si](C)(C#CC1(O)CCCCC1)C(Cl)Cl")
"102 % of control"
>>> observed_result("COc1cc2c(cc1OC)N(S(=O)(=O)c1ccc(C)cc1)CCCC2=O")
"96 % of control"
>>> observed_result("CCCCCCCCC1CCC(N)CC1 (configuration not stated)")
"95 % of control"
>>> observed_result("O=[N+]([O-])c1cccc(-c2ccccc2)c1Br")
"93 % of control"
>>> observed_result("Cc1ccc(Cc2cc(=O)[nH]c(=S)[nH]2)cc1")
"98 % of control"
>>> observed_result("CSc1ccc(OC(=O)NC2CCCCC2)cc1C")
"93 % of control"
>>> observed_result("CCCCNC(=O)Nc1ccccc1OCC")
"94 % of control"
>>> observed_result("CC(NC(=O)NCCCl)C(O)c1ccccc1 (configuration not stated)")
"100 % of control"
>>> observed_result("CCC(O)c1cnc(OCc2ccccc2)nc1OCc1ccccc1 (configuration not stated)")
"96 % of control"
>>> observed_result("CCCCCCCCCCCCCCCCN(C(=S)NC(=O)c1ccccc1)c1ccccc1")
"97 % of control"
>>> observed_result("CCCCCOc1ccc(C(=O)CC(=O)OCC)cc1")
"93 % of control"

* * *

# System: L1210 leukemia ip in BDF1 mice, survival T/C
# experiment summary: NCI In Vivo Anticancer Drug Screen. Data for tumor model L1210 Leukemia (intraperitoneal) in B6D2F1 (BDF1) mice
# protocol conditions: endpoint: mean survival time; dose: 100.0 mg/kg/injection; schedule: Q04DX003 (ip); vehicle: Klucel (hydroxypropylcellulose) (HPC); higher = longer survival
# Protocol: The antitumor activity of compounds was measured in mice bearing transplantable tumors. Survival or tumor size were measured and the results are expressed as the measurement made in the treated group (T) divided by the measurement made in the vehicle treated control group (C). The tumor model used in this assay is L1210 Leukemia (intraperitoneal) in B6D2F1 (BDF1) mice
Inconclusive results and toxic doses are left out.
Quick reference for T/C among some molecules
value type: T/C

>>> observed_result("CC(C)C1CC(C)(C)c2cc(O)ccc2O1 (stereo unspecified)")
"101 % of control"
>>> observed_result("Cc1cc(C)c(S(=O)(=O)ON=C2c3ccccc3-c3ccccc32)c(C)c1")
"105 % of control"
>>> observed_result("O=C(N=C1C=CC(=NC(=O)OCc2ccccc2)C=C1)OCc1ccccc1")
"92 % of control"
>>> observed_result("COC(=S)SCN(CSC(=S)OC)c1ccccc1Cl")
"103 % of control"
>>> observed_result("OC(CCN1CCCC1)(c1ccccc1)C1CCCCC1 (stereo unspecified)")
"92 % of control"
>>> observed_result("OCC12COC(c3ccccc3)N1C(c1ccccc1)OC2 (stereo unspecified)")
"102 % of control"
>>> observed_result("Cc1ccc(S(=O)(=O)OCCN(CCOS(=O)(=O)c2ccc(C)cc2)S(=O)(=O)c2ccc(C)cc2)cc1")
"94 % of control"
>>> observed_result("COc1ccc(C(OC2OC(n3cnc4c(=S)nc(N)[nH]c43)CC2OC(C)=O)(c2ccccc2)c2ccc(OC)cc2)cc1 (stereo unspecified)")
"101 % of control"
>>> observed_result("COC(=O)C1CC2c3[nH]c4ccccc4c3CCN2C1 (stereo unspecified)")
"94 % of control"
>>> observed_result("Cc1cccc(C)c1C(Cl)CS(=O)(=O)c1ccccc1 (stereo unspecified)")
"102 % of control"
>>> observed_result("c1ccc2c(c1)OB(C1CCCC1)O2")
"95 % of control"

* * *

Quick reference for T/C among some molecules
# System: L1210 leukemia ip in BDF1 mice, survival T/C
# experiment summary: NCI In Vivo Anticancer Drug Screen. Data for tumor model L1210 Leukemia (intraperitoneal) in B6D2F1 (BDF1) mice
# protocol conditions: endpoint: mean survival time; dose: 200.0 mg/kg/injection; schedule: Q01DX001 (ip); vehicle: saline; higher = longer survival
Inconclusive results and toxic doses are left out.
value type: T/C

>>> observed_result("CSc1ccc(OC(C)=O)cc1C")
"98 % of control"
>>> observed_result("CSc1ncnc2c1ncn2NC(=O)C1CC(=O)N(C)C1 (stereo unspecified)")
"103 % of control"
>>> observed_result("N#Cc1ccc(NC(=O)NNC(=O)CCCC(=O)NNC(=O)Nc2ccc(C#N)cc2)cc1")
"101 % of control"
>>> observed_result("O=C(Oc1ccc(Br)cc1)c1cc([N+](=O)[O-])ccc1O")
"104 % of control"
>>> observed_result("CCCCCCCCCCCC(=O)NC(CCC(=O)O)C(=O)O (stereo unspecified)")
"103 % of control"
>>> observed_result("CCOC(=O)/C(C#N)=C(/C)C(C)C(=O)OCC (stereo unspecified)")
"100 % of control"
>>> observed_result("CC(=O)SCCCON1C(=O)c2ccccc2C1=O")
"102 % of control"
>>> observed_result("N#CCC(O)(c1ccccc1)c1ccccc1")
"98 % of control"
>>> observed_result("Clc1ccc2c(Cl)ncnc2c1")
"91 % of control"
>>> observed_result("CC[C@H](CC[C@@H](C)[C@H]1CC[C@H]2[C@@H]3CC=C4C[C@@H](O)CC[C@]4(C)[C@H]3CC[C@]12C)C(C)C")
"97 % of control"
>>> observed_result("O=C(O)C1CCCCN1O (stereo unspecified)")
"104 % of control"
